Ref: patent US20260183297A1

# TARGET_SYSTEM: FADS1 (Mus musculus, UniProt Q920L1)
# Construct: Liver from ^13C5-DGLA dosed DIO mice was collected for pharmacodynamic (PD) analysis; from tissue; host or cells: living DIO C57Bl/6 mice; 13C5-DGLA to 13C5-AA conversion read in liver (A4) or blood plasma (A5)
# Sequence (Q920L1 whole entry): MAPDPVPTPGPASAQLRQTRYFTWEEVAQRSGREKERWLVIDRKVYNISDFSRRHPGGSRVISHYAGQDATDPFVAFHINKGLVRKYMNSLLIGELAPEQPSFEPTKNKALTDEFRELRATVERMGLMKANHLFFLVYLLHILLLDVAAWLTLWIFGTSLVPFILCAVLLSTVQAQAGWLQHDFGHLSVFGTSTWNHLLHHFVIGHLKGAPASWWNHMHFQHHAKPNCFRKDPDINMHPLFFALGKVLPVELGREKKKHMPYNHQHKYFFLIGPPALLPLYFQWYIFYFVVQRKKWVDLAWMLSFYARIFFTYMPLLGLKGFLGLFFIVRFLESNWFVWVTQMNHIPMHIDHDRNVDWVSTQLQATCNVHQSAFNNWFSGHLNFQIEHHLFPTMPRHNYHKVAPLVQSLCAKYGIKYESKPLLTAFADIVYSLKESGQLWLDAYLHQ
# MEASUREMENT_NOTES: In vivo FADS1 activity measurement using blood plasma (13C5-DGLA to 13C5-AA conversion)
# SETUP_CONDITIONS: DIO mice, single oral dose 30 mg/kg, 24 hours after dosing
MEASURED_ATTRIBUTE: Plasma Avg % Conversion (%)

The examples below pair each entry with its known result.
| STRUCTURE_NOTATION | UNIT_ANNOTATION | Plasma Avg % Conversion |
| --- | --- | --- |
| O=c1c(-c2ccc(OCC(F)(F)F)cc2)c(C(F)(F)F)nc2cc(CO)ccn12 | % | 25.1 |
| N#Cc1ccn2c(=O)c(-c3cnn(CC(F)(F)C(F)(F)F)c3)c(C(F)(F)F)nc2c1 | % | 1.7 |

[a] COc1ccn2c(=O)c(-c3ccc(O[C@H](C)C#N)cc3)c(C(F)(F)F)nc2n1
[b] COc1ccn2c(=O)c(-c3cnn(CC(F)(F)C(F)(F)F)c3)c(C(F)(F)F)nc2n1
QUERY: Which record shows the lower Plasma Avg % Conversion: the first, a , or the second, b ? Refer to your chosen entry by its label in the reply.
RESULT: b
(b: 2.2%, a: 58.1%)
